- Test system: c-Src;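 also: 11-residue human phosphosite peptides and single-mutation variants displayed on the E. coli surface, counted by deep sequencing, each peptide's frequency after selection divided by its frequency in the unselected input library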;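 also: frequency after pTyr selection over input frequency; kinase dosed for 20-30% of maximal phosphorylation in three min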
- procedure-text: phosphorylation enrichment, bacterial display (enrichment ratio); higher = better substrate or ligand; peptides without Tyr show the background
Entry flag: yes (1) if phosphorylation enrichment reaches 0.5; no (0) if it does not.

// known answers, use as guide
PNEAVYTKMMT [G6PD_Y401] :: yes (1)
GTCGGYCSVLG [RAB18_Y202_A198T] :: no (0)
LDFNEYVRDLN [HPRT1_Y198_F199V_YF] :: yes (1)

Is it the case that KVKPIYFHTRG [AR_Y916_Q920R] has phosphorylation enrichment reaching or exceeding 0.5? no (0)

Is it the case that KSVITYSPTTG [ITGB3BP_Y32] has phosphorylation enrichment reaching or exceeding 0.5? no (0)
